System: HCT116
Test: efficacy (fitted maximal change in viability relative to DMSO control); higher = less cytotoxic (negative = loss of viability)
Conditions: 48 h
Where a name gives a salt, the structure may show the parent alone.
Assign y whenever efficacy does not fall below -50%; assign n whenever it does.

CC(C)N(CCCNC(=O)Nc1ccc(C(C)(C)C)cc1)C[C@H]1O[C@@H](n2cc(Br)c3c(N)ncnc32)[C@H](O)[C@@H]1O ... n
Cc1ccc(/C=N/NC(=O)c2ccccc2Oc2ccccc2)o1 ... y
CCN1\C(=C(C(=O)NC)/C(=O)C2=C1N=C(C=C2)C#CC(C)(O)COC)N (centres undefined) ... y
CCN1CCN(C(=O)N[C@@H](C(=O)N[C@H]2[C@H]3SC\C(=C(/N3C2=O)C(O)=O)CSC4=NN=N[N]4C)C5=CC=C(O)C=C5)C(=O)C1=O [Cefoperazone (sodium salt)] ... y
Oc1cccc(-c2nc(N3CCOCC3)c3oc4ncccc4c3n2)c1 ... n
CC(=O)C1CCC2C3CC\C4=C\C(=O)CCC4(C)C3CCC12C (centres undefined) ... n
CCCC\1=C(/CNC(=O)C2=CC(=CC3=C2C=N[N]3C(C)C)C4=CC(=NC=C4)N5CCN(C)CC5)C(=O)NC(=C1)\C ... n
CC1=CC=CC=C1CN2C(=O)C/3=C(/CCN(CC4=CC=CC=C4)C3)N\5CC\N=C25 ... n
C[C@]12CC[C@@H]3c4ccc(O)cc4CC[C@H]3[C@@H]1C[C@@H](O)[C@@H]2O ... n
CN1C(=O)N(c2cc(Cl)cc(Cl)c2)C(=O)[C@]12CN(Cc1cc(C(=O)O)cs1)C[C@H]2c1ccc(C#N)cc1 ... y
O=C1Cc2cc(C(=O)NC3C[C@H]4CC[C@@H](C3)N4[S+](=O)([O-])CC3CCN(CCCC(F)(F)F)CC3)c(Cl)cc2N1 (some centres undefined) ... y
Clc1cccc(-c2ccc(-c3nnc(CCCc4ccc5cccnc5n4)o3)cc2)c1 ... y
CCO[C@@H]1OC(=O)C[C@@H]1NC(=O)[C@@H]1CCCN1C(=O)[C@@H](NC(=O)c1ccc(N)c(Cl)c1)C(C)(C)C ... y

---

Test system: HCT116;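 note: Luminescence-based viability readout, five doses per compound, normalized against on-plate DMSO and empty-well controls, followed by dose-response curve fitting for every drug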
Test: efficacy (fitted maximal change in viability relative to DMSO control); higher = less cytotoxic (negative = loss of viability)
Settings: 48 h
In this section we review reported efficacy values for a set of molecules.
measurement.label: efficacy (%)

Clc1cccc(-n2nnnc2NCc2ccccc2Oc2ccccn2)c1Cl ... -32
O=C(NC1CC1)c1cccc(-c2ccc3c(NC(=O)C4CC4)n[nH]c3c2)c1 ... -52.3
C\C1=N\N(C(=O)C1)C2=CC=CC=C2 ... -11.9
CN(C)CCCNC(=O)c1ccc(-c2cc(O)c3ncccc3c2)cc1 ... -86.4
CC(c1cc2ccccc2s1)N(O)C(N)=O (configuration not stated) ... -26.8
C[C@H]1O[C@H]([C@H](O)[C@@H]1O)N2\C=C(F)/C(=O)NC2=O ... -68.1
CN(C)CC(=O)N1CCC(CC1)C2=CC=C(NC(=O)C3=NC(=C[NH]3)C#N)C(=C2)\C4=C\CCCC4 ... -80.1
C[C@H]1CNCCCN1[S+](=O)([O-])c1cccc2cncc(F)c12 ... -11
CC[S+](=O)([O-])c1cccc(-c2cc(C(=O)NC3CCN(C)CC3)c(C)c3[nH]c4ncc(C)cc4c23)c1 ... -76.3
CC(C)(Oc1ccc(C2CC2(Cl)Cl)cc1)C(=O)O (configuration not stated) [Ciprofibrate] ... -6.71
Clc1cccc(C(c2ccc3nc[nH]c3c2)n2ccnc2)c1 (configuration not stated) ... -23
C=CC(=O)Nc1cccc(Oc2nc(Nc3ccc(N4CCN(C)CC4)cc3)nc3ccsc23)c1 ... -98.2
c1cc(N[C@@H]2CCNC2)nc(-c2cnc3ccc(-c4cn[nH]c4)cn23)c1 ... -59.7
C[N]1N=CC=C1NC2=NC=CC(=N2)C\3=C\C(=O)N(\C=C3)[C@H](CO)C4=CC(=C(Cl)C=C4)F ... -116
CC(C)C1=C(O)C=C(O)C(=C1)C/2=N/NC(=O)N2C3=CC4=C(C=C3)[N](C)C=C4 [Ganetespib (STA-9090)] ... -62.3
CCCn1c(=O)c2[nH]c(C34CC5CC3C[C@@H](C5)C4)nc2n(CCC)c1=O ... -6.71
CN(CCOc1ccc(C[C@H](Nc2ccccc2C(=O)c2ccccc2)C(=O)O)cc1)c1ccccn1 ... -7.57
